Entries and their furin cleavage Z-score
Target: furin, P09958;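 also: purified furin at 1:10 enzyme:substrate in 50 mM HEPES pH 7.5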
Sequence (P09958 whole entry): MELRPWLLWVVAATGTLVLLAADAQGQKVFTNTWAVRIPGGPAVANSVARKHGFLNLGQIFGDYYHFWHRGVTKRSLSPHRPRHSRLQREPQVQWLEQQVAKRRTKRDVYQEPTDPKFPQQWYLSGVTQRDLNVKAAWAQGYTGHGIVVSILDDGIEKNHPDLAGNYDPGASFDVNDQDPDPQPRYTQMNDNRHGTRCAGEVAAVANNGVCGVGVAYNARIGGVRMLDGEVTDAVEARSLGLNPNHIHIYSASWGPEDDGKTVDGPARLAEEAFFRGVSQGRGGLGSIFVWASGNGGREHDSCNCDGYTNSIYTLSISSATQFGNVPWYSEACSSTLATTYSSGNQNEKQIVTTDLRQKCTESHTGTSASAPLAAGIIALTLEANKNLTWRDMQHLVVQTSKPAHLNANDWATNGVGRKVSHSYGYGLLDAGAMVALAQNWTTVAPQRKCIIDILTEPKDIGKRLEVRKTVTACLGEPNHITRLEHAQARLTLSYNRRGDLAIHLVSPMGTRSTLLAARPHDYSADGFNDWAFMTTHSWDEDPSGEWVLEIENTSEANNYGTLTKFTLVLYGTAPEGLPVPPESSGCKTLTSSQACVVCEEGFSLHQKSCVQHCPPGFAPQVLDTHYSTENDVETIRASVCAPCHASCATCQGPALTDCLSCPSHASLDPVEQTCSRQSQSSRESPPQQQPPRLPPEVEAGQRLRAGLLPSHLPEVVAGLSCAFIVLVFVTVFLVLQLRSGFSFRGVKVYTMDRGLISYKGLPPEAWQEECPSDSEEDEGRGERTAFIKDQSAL
Assay: furin cleavage Z-score vs untreated control; higher = more cleavage, active = 3.5 or more, inactive = 1 or less, 8 variable residues between constant flanks
Conditions: 7.5 min
This is one part of the list. No count for the full screen is at hand.
Metric name: furin cleavage Z-score

> print(dat)
               sequence.content             metric.name  observed.result
1   CATAPCSGSWAGNASASA [HC1843]  furin cleavage Z-score           -0.496
2    CARGGRDAVIAGNASASA [HC594]  furin cleavage Z-score            0.336
3   CASREVPCHRAGNASASA [HC2437]  furin cleavage Z-score            0.554
4   CATNHRIFRSAGNASASA [FS-384]  furin cleavage Z-score             1.71
5   CAEKTTPCSGAGNASASA [HC1974]  furin cleavage Z-score            -1.24
6  CARSRKEVELAGNASASA [FS-2089]  furin cleavage Z-score           0.0687
7   CACHLRRFRSAGNASASA [FS-581]  furin cleavage Z-score           -0.297
